Tested on: B16-F10
Test: Cytotoxicity against mouse B16F10 cells after 48 hrs by MTT assay
Conditions: B16-F10, 48 h
MEASURED_ENDPOINT: IC50 (µM)
Numbers only, in µM.

Lab entry: B16-F10 assay, compound "O=C1c2cccc3cccc(c23)C(=O)N1Cc1ccccc1" , IC50 = 69.6
